Listing of entries alongside the reported Foxtail, Giant plant response rating.
- Test system: giant foxtail (Setaria faberii)
- ASSAY_INFO: Test D pre-/postemergence plant response
- Type: in vivo
- CONDITION: Postemergence, 31 g ai/ha; scale 0 to 100 (0 no effect, 100 complete control)
No unit in the answer, only the number.

Sample records with Foxtail, Giant plant response rating:
{"columns": ["STRUCTURE_SMILES", "Foxtail, Giant plant response rating"],
 "data": [
  ["FC(F)c1cc(-c2c(Cl)cccc2Oc2ncc(Br)cn2)on1", 10],
  ["Cc1cc(-c2ccccc2Oc2ncc(Cl)cn2)on1", 0],
  ["Clc1cnc(Oc2ccccc2-c2ccon2)nc1", 5],
  ["Clc1cnc(Oc2ccccc2-c2cc(Cl)sn2)nc1", 25],
  ["Fc1cccc(Oc2ncc(Cl)cn2)c1-c1cc(C(F)(F)F)no1", 10],
  ["FC(F)(Br)c1cc(-c2ccccc2Oc2ncc(Cl)cn2)no1", 10]
]}

Param item = FC(F)c1cc(-c2ccccc2Oc2ncc(Br)cn2)on1 ; retrieve measured Foxtail, Giant plant response rating.
10

Cool, now FC(F)(F)c1cc(-c2c(I)cccc2Oc2ncc(Cl)cn2)no1
10

Next compound up: FCc1cc(-c2c(Br)cccc2Oc2ncc(Cl)cn2)no1
5

* * *

- System: spring wheat (Triticum aestivum)
- ASSAY_INFO: Test E pre-/postemergence plant response
- Type: in vivo
- CONDITION: pre-emergence, 16 g ai/ha, Preemergence, scale 0 to 100, read-out: Plant response rating, Wheat, Spring
- From the text: […] Treated plants and controls were maintained in a controlled growth environment for 7 to 21 days after which time all species were compared to controls and visually evaluated. […]
QUANTITY_MEASURED: plant injury at 16 g/ha
Answer shape: numeric part, then the unit.

Take a look at these entries with their results.
{"columns": ["COMPOUND", "plant injury at 16 g/ha"],
 "data": [
  ["FC(F)c1cc(-c2ccccc2Oc2ncc(Cl)cn2)on1 [Compound 53]", "5%"],
  ["FC(F)c1cc(-c2ccccc2Oc2ncc(Br)cn2)no1 [Compound 62]", "0%"],
  ["Fc1cccc(Oc2ncc(Cl)cn2)c1-c1cc(C(F)(F)F)on1 [Compound 168]", "15%"]
]}

Endpoint output: plant injury at 16 g/ha of Fc1cccc(Oc2ncc(Cl)cn2)c1-c1cc(C(F)F)no1 [Compound 144] . Value?
5%

* * *

- Test system: giant foxtail (Setaria faberii)
- ASSAY_INFO: Test B pre-/postemergence plant response
- Type: in vivo
- CONDITION: Preemergence, 125 g ai/ha; 0 to 100 scale (0 no effect, 100 complete control)
QUANTITY_MEASURED: Foxtail, Giant plant response rating
Field format: numeric only.

Field: example entries. Status: answers known.
{"columns": ["STRUCTURE_SMILES", "RECORDED_RESULT"],
 "data": [
  ["N#Cc1cccc(-n2cc(Br)cn2)c1Oc1ncc(Cl)cn1", 30],
  ["Fc1cnc(Oc2ccccc2-c2cnccn2)nc1", 0],
  ["N#Cc1cccc(Oc2ncc(F)cn2)c1-c1ccc(Cl)cn1", 70],
  ["Clc1ccc(-c2ccc(Br)cc2Oc2ncc(Cl)cn2)nc1", 0]
]}

// next entry
Any idea what its Foxtail, Giant plant response rating is? The compound is FC(F)Oc1cccc(Oc2ncc(Cl)cn2)c1-c1cc(C(F)F)no1
90

* * *

- Tested on: barnyardgrass (Echinochloa crus-galli)
- ASSAY_INFO: Test D pre-/postemergence plant response
- Assay type: in vivo
- CONDITION: Echinochloa crus-galli, pre-emergence; Preemergence, 125 g ai/ha; read-out: Plant response rating (scale 0 to 100), Barnyardgrass
QUANTITY_MEASURED: pest or weed control at 125 g/ha (%)
# unit: % | format: bare number

{"columns": ["MOLECULE", "pest or weed control at 125 g/ha, %"],
 "data": [
  ["FC(F)c1cc(-c2ccccc2Oc2ncc(Cl)cn2)on1 [Compound 53]", 95],
  ["FC(F)(F)c1cc(-c2ccccc2Oc2ncc(Cl)cn2)on1 [Compound 63]", 100],
  ["FC(F)c1cc(-c2ccccc2Oc2ncc(Br)cn2)no1 [Compound 62]", 100]
]}

What does the data say about its pest or weed control at 125 g/ha? Entry: Fc1cccc(Oc2ncc(Cl)cn2)c1-c1cc(C(F)F)on1 [Compound 55]
100

* * *

- System: galium (catchweed bedstraw, Galium aparine)
- ASSAY_INFO: Test D pre-/postemergence plant response
- Format: in vivo
- CONDITION: Postemergence, 31 g ai/ha; scale 0 to 100 (0 no effect, 100 complete control)
Binary classification by Galium plant response rating, with 80 as an inclusive lower bound for TRUE; all other cases are FALSE.

A selection of reference data follows.
{"columns": ["STRUCTURE_SMILES", "CATEGORY"],
 "data": [
  ["Cc1cc(-c2ccccc2Oc2ncc(Cl)cn2)no1", "FALSE"],
  ["FC(F)(F)c1cc(-c2c(I)cccc2Oc2ncc(Cl)cn2)no1", "FALSE"],
  ["FCc1cc(-c2c(Br)cccc2Oc2ncc(Cl)cn2)no1", "FALSE"],
  ["Cc1cc(-c2c(F)cccc2Oc2ncc(Cl)cn2)on1", "FALSE"],
  ["FC(F)(Cl)c1cc(-c2ccccc2Oc2ncc(Cl)cn2)no1", "FALSE"]
]}

Is Galium plant response rating at least 80? Consider Fc1ccc(Oc2ncc(Cl)cn2)c(-c2cc(C(F)F)on2)c1Cl
TRUE

Do the same for FC(F)Oc1cccc(Oc2ncc(Cl)cn2)c1-c1cc(C(F)F)on1 please
TRUE

* * *

- Test system: lambsquarters (Chenopodium album)
- ASSAY_INFO: Test D pre-/postemergence plant response
- Format: in vivo
- CONDITION: Postemergence, 16 g ai/ha
QUANTITY_MEASURED: Plant response rating (scale 0 to 100), Lambsquarters

Report Plant response rating (scale 0 to 100), Lambsquarters for Cc1cc(-c2c(F)cccc2Oc2ncc(Cl)cn2)on1 [Compound 229] tested on lambsquarters (Chenopodium album).
60

Would you kindly repeat that for CC(F)(F)c1cc(-c2ccccc2Oc2ncc(Cl)cn2)no1 [Compound 220] ?
70

* * *

- System: winter wheat (Triticum aestivum)
- ASSAY_INFO: Test D pre-/postemergence plant response
- Format: in vivo
- CONDITION: Triticum aestivum, pre-emergence; Preemergence; 31 g ai/ha; scale 0 to 100 (0 no effect, 100 complete control); read-out: Plant response rating, Wheat
QUANTITY_MEASURED: plant injury at 31 g/ha
Please state the number and follow it with the unit.

Known results for compounds:
{"columns": ["STRUCTURE_SMILES", "ASSAY_SYSTEM", "plant injury at 31 g/ha"],
 "data": [
  ["FC(F)c1cc(-c2ccccc2Oc2ncc(Cl)cn2)no1", "winter wheat (Triticum aestivum)", "5%"],
  ["FC(F)c1cc(-c2ccccc2Oc2ncc(Br)cn2)no1", "winter wheat (Triticum aestivum)", "0%"],
  ["Fc1cccc(Oc2ncc(Br)cn2)c1-c1cc(C(F)F)no1", "winter wheat (Triticum aestivum)", "0%"]
]}

Find plant injury at 31 g/ha (winter wheat (Triticum aestivum)) for the entry Fc1cccc(Oc2ncc(Cl)cn2)c1-c1cc(C(F)F)on1
0%

Entry to check: FC(F)(F)c1cc(-c2ccccc2Oc2ncc(Cl)cn2)no1
5%

For FC(F)c1cc(-c2ccccc2Oc2ncc(Cl)cn2)on1 then?
0%

* * *

- Test system: giant foxtail (Setaria faberii)
- ASSAY_INFO: Test B pre-/postemergence plant response
- Assay type: in vivo
- CONDITION: Preemergence, 1000 g ai/ha; 0 to 100 scale (0 no effect, 100 complete control)
- Excerpt: […]
QUANTITY_MEASURED: Plant response rating, Foxtail, Giant
I'd appreciate a reply containing only the number, no unit.

Past entries and their recorded results:
{"columns": ["COMPOUND", "ASSAY_SYSTEM", "QUANTITY_MEASURED", "RECORDED_RESULT"],
 "data": [
  ["Clc1cnc(Oc2ccccc2-c2nnco2)nc1 [Compound 6]", "giant foxtail (Setaria faberii)", "Plant response rating, Foxtail, Giant", 0],
  ["Cc1cnc(Oc2ccccc2-c2cc(Cl)sn2)nc1 [Compound 194]", "giant foxtail (Setaria faberii)", "Plant response rating, Foxtail, Giant", 100],
  ["Clc1cnc(Oc2ccccc2-c2ccc(Cl)nn2)nc1 [Compound 186]", "giant foxtail (Setaria faberii)", "Plant response rating, Foxtail, Giant", 100],
  ["CN(C)c1ccc(-c2ccccc2Oc2ncc(Cl)cn2)cn1 [Compound 2]", "giant foxtail (Setaria faberii)", "Plant response rating, Foxtail, Giant", 10],
  ["COC(=O)c1cc(-c2ccccc2Oc2ncc(Cl)cn2)no1 [Compound 235]", "giant foxtail (Setaria faberii)", "Plant response rating, Foxtail, Giant", 0]
]}

Would you kindly look at the next entry?
Request the reported Plant response rating, Foxtail, Giant associated with CCOC(=O)c1cc(-c2ccccc2Oc2ncc(Cl)cn2)no1 [Compound 148]
0
